# Target of assay: T1, human GITR-Fc (human, UniProt Q9Y5U5 26-161)
# T1 construct: Recombinant GITR-Fc; also called hGITR-Fc; hGITR; not shown: Fc part
# T1 sequence (looked up): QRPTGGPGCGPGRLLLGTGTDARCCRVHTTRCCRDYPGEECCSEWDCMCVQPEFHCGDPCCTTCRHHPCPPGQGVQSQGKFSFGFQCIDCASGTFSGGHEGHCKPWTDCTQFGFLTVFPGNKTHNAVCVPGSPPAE
# Method description: direct titration ELISA on coated human GITR-Fc, IgG1 0.001-1 µg/ml, OD 450 nm
Quantity kind: binding result

VH1/VL2 IgG1 (antibody, V domains shown, Human IgG1; also called VH1 family) VH: QVTLRESGPALVKPTQTLTLTCTFSGFSLSTSGMGVGWIRQPPGKALEWLAHIWWDDDKYYNPSLKSRLTISKDTSKNQVVLTMTNMDPVDTATYYCARTRRYFPFAYWGQGTLVTVSS VL: EIVLTQSPATLSLSPGERATLSCRASQNVGTNVAWYQQKPGQAPRLLIYSASYRYSGIPARFSGSGSGTDFTLTISSLEPEDFAVYYCQQYNTDPLTFGGGTKVEIK; binds
VH1/VL3 IgG1 (antibody, V domains shown, Human IgG1; also called VH1 family) VH: QVTLRESGPALVKPTQTLTLTCTFSGFSLSTSGMGVGWIRQPPGKALEWLAHIWWDDDKYYNPSLKSRLTISKDTSKNQVVLTMTNMDPVDTATYYCARTRRYFPFAYWGQGTLVTVSS VL: DIQMTQSPSSLSASVGDRVTITCRASQNVGTNVAWYQQKPGKAPKLLIYSASYRYSGVPSRFSGSGSGTDFTLTISSLQPEDFATYYCQQYNTDPLTFGGGTKVEIK; binds
